System: HaCaT
Test: Cytotoxicity against human HaCaT cells at 25 uM after 24 hrs by MTT assay relative to control
Assay type: cell-based
Where a SMILES comes first, the peptide text is derived from it. [ ]: non-standard residue; d: D form.
attributeMeasured: Activity (%)
Give bare numbers, in %.

CC[C@H](C)[C@H](NC(=O)[C@H](CCCNC(=N)N)NC(=O)[C@@H](Cc1c[nH]c2ccccc12)NC(=O)[C@@H](CC(C)C)NC(=O)[C@H](Cc1ccccc1)NC(=O)[C@H](CCCCN)NC(=O)[C@H](CO)NC(=O)[C@H](Cc1ccccc1)NC(=O)[C@H](Cc1c[nH]c2ccccc12)NC(=O)[C@@H]1CCCN1C(=O)[C@@H](NC(=O)[C@@H](N)Cc1ccccc1)C(C)C)C(=O)N[C@@H](CC(C)C)C(N)=O (H-FVPWFSKF[dL][dW]RIL-NH2); 35.34
CCCC[C@@H](NC(=O)[C@@H](CC(C)C)NC(=O)[C@H](Cc1ccccc1)NC(=O)[C@H](CCCCN)NC(=O)[C@H](CO)NC(=O)[C@H](Cc1ccccc1)NC(=O)[C@H](Cc1c[nH]c2ccccc12)NC(=O)[C@@H]1CCCN1C(=O)[C@@H](NC(=O)[C@@H](N)Cc1ccccc1)C(C)C)C(=O)N[C@@H](CCCNC(=N)N)C(=O)NC(C(=O)N[C@@H](CC(C)C)C(N)=O)[C@@H](C)CC (single isomer, unassigned); 72.81

Moving on to the next compound.
Prompt line: Can you share its Activity? I mean this compound: "CC[C@H](C)[C@H](NC(=O)[C@H](CCCNC(=N)N)NC(=O)[C@@H]1C[C@@H](O)CN1C(=O)[C@@H](CC(C)C)NC(=O)[C@H](Cc1ccccc1)NC(=O)[C@H](CCCCN)NC(=O)[C@H](CO)NC(=O)[C@H](Cc1ccccc1)NC(=O)[C@H](Cc1c[nH]c2ccccc12)NC(=O)[C@@H]1CCCN1C(=O)[C@@H](NC(=O)[C@@H](N)Cc1ccccc1)C(C)C)C(=O)N[C@@H](CC(C)C)C(N)=O"
Response line: 84.72

Sourced from ChEMBL document CHEMBL4130416
